Value source: patent US20220162182A1

- ASSAY SYSTEM: DYRK1/DYRK1A (Homo sapiens)
- Construct: purchased Reaction Biology Corp
- TEST NAME: DYRK1/DYRK1A IC50 assay (Reaction Biology Corp.)
- Type: biochemical
- REPORTED CONDITIONS: DYRK1/DYRK1A assay from Reaction Biology Corp.
MEASURED QUANTITY: IC50 (nM)
Report only the number, with the unit nM understood.

Kindly indicate its recorded IC50. Item: O=c1[nH]c2ccc(-c3cncc(CNc4cccc(F)c4)c3)cc2[nH]1 [Compound 52b]
1.31

Consider the molecule O=c1[nH]c2ccc(-c3cnccc3NCc3ccccc3)cc2[nH]1 [Compound 74c] . State its measured IC50.
1690

Provide measured IC50 value, entry: O=c1[nH]c2ccc(-c3cncc(NCc4ncc[nH]4)c3)cc2[nH]1 [Compound 49c]
4.91

Report IC50 for N[C@H](Cc1ccccc1)c1cncc(-c2ccc3[nH]c(=O)[nH]c3c2)c1 [Compound 65a]
3.98

Assign IC50 to the following record: O=c1[nH]c2ccc(-c3cncc(NCc4ccccc4)c3)cc2n1-c1ccccc1 [Compound 61e]
3.8

Please report IC50 for the following molecule: COc1cccc(NCc2cncc(-c3ccc4[nH]c(=O)[nH]c4c3)c2)c1 [Compound 52h]
2.26

Give IC50 for O=c1[nH]c2ccc(-c3cncc(NCc4ncco4)c3)cc2[nH]1 [Compound 49f]
4.03

Identify IC50 associated with the molecule O=c1[nH]c2ccc(-c3cncc(NCc4ccccc4)c3)cc2n1C1CCCC1 [Compound 61d]
24

Using the record for O=c1[nH]c2ccc(-c3cncc(NCCCc4ccccc4)c3)cc2[nH]1 [Compound 30p] , state its measured IC50.
1.83

###

What Kd was measured for each of the following?
- ASSAY SYSTEM: DYRK1A (Homo sapiens, UniProt Q13627)
- Construct: purchased DiscoverX
- TEST NAME: KINOMEscan DYRK1A binding assay (DiscoverX), Kd determination
- REPORTED CONDITIONS: eleven serial three fold dilutions, highest concentration 60 μM, several values in a cell = repeat determinations
Supply the numeric figure in nM, leaving out any unit text.

Give a short answer stating reported Kd for O=c1[nH]c2ccc(-c3cncc(NCc4ccncc4)c3)cc2[nH]1 [Compound 31c] .
3.9

Give the reported value of Kd for this record: O=c1[nH]c2ccc(-c3cncc(NCc4cccc(F)c4)c3)cc2[nH]1 [Compound 30b]
1.2

Give Kd for O=c1[nH]c2ccc(-c3cncc(NCc4ccccn4)c3)cc2[nH]1 [Compound 31a]
1.2

Please list Kd recorded for the molecule O=c1[nH]c2ccc(-c3cncc(NCc4cccc5ccccc45)c3)cc2[nH]1 [Compound 31d]
28

Consider the molecule NC(=O)c1cccc(CNc2cncc(-c3ccc4[nH]c(=O)[nH]c4c3)c2)c1 [Compound 33a] . State its measured Kd.
9.9

Please give the documented Kd of C[C@@H](Nc1cncc(-c2ccc3[nH]c(=O)[nH]c3c2)c1)c1ccccc1 [Compound 68a]
0.59

Name the recorded Kd of the item N[C@H](Cc1ccccc1)c1cncc(-c2ccc3[nH]c(=O)[nH]c3c2)c1 [Compound 65a] in your answer.
3.2

Item O=c1[nH]c2ccc(-c3cncc(NCc4ccc5ccccc5c4)c3)cc2[nH]1 [Compound 31e] : provide Kd
100

Supply reported Kd belonging to this molecule: O=c1[nH]c2ccc(-c3cncc(NCc4ccccc4F)c3)cc2[nH]1 [Compound 30a]
1.2

Please give measured Kd of the following entry: N[C@@H](Cc1ccccc1)c1cncc(-c2ccc3[nH]c(=O)[nH]c3c2)c1 [Compound 65b]
15

###

- ASSAY SYSTEM: DYRK1A (Homo sapiens)
- Construct: purchased DiscoverX
- TEST NAME: KINOMEscan DYRK1A binding assay (DiscoverX), Kd determination
- REPORTED CONDITIONS: eleven serial three fold dilutions, highest concentration 60 μM, several values in a cell = repeat determinations
MEASURED QUANTITY: Kd
Include the unit right after the number.

State its Kd for this molecule: N#Cc1cccc(CNc2cncc(-c3ccc4[nH]c(=O)[nH]c4c3)c2)c1 [Compound 30f]
5.8 nM

Please give measured Kd of the following entry: Cn1c(=O)[nH]c2ccc(-c3cncc(NCc4ccccc4Cl)c3)cc21 [Compound 30r]
1.3 nM

Fill in reported Kd for this entry: O=c1[nH]c2ccc(-c3cncc(NCc4cccnc4)c3)cc2[nH]1 [Compound 31b]
2.1 nM

Determine its reported Kd: O=c1[nH]c2ccc(-c3ccc(NCc4ccccc4)nc3)cc2[nH]1 [Compound 11a]
300 nM

Dear colleague, please send me the reported Kd for O=c1[nH]c2ccc(-c3cncc(NCCc4ccccc4)c3)cc2[nH]1 [Compound 30k] when you can.
4.3 nM

###

- ASSAY SYSTEM: DYRK1/DYRK1A (Homo sapiens, UniProt Q13627)
- Construct: purchased Reaction Biology Corp
- TEST NAME: DYRK1/DYRK1A IC50 assay (Reaction Biology Corp.)
- Assay type: biochemical
- REPORTED CONDITIONS: DYRK1/DYRK1A assay from Reaction Biology Corp.
Would you kindly list IC50 for each of these compounds?
Just the number please, in nM, no unit attached.

# return recorded IC50 for input COc1ccc(NCc2cncc(-c3ccc4[nH]c(=O)[nH]c4c3)c2)cc1 [Compound 52i]
2.2

Provide only the value of recorded IC50 for O=c1[nH]c2ccc(-c3cncc(CNc4ccc(F)cc4)c3)cc2[nH]1 [Compound 52c]
6.11

Consider the compound C[C@H](Nc1cncc(-c2ccc3[nH]c(=O)n(C)c3c2)c1)c1ccccc1 [Compound 69c] and give its recorded IC50.
0.286

Look up and report measured IC50 for this entry: O=c1[nH]c2ccc(-c3cncc(CNc4ccccc4F)c3)cc2[nH]1 [Compound 52a]
3.67

Annotate the compound Cn1c(=O)[nH]c2ccc(-c3cncc(NCc4ccccc4F)c3)cc21 [Compound 30q] with its measured IC50.
0.3

###

- ASSAY SYSTEM: DYRK1/DYRK1A (Homo sapiens, UniProt Q13627)
- Construct: purchased Reaction Biology Corp
- TEST NAME: DYRK1/DYRK1A IC50 assay (Reaction Biology Corp.)
- Assay type: biochemical
- REPORTED CONDITIONS: DYRK1/DYRK1A assay from Reaction Biology Corp.
Would you mind telling me the reported IC50 of each entry?
Form entry: value (nM) — number only.

Write down IC50 measured for item CC(C)(C)OC(=O)NCCOCCOc1cccc(-n2c(=O)[nH]c3ccc(-c4cncc(NCc5ccccc5)c4)cc32)c1 [Compound 61m]
42.8

Read the entry C[C@H](Nc1cncc(-c2ccc3[nH]c(=O)[nH]c3c2)c1)c1ccccc1 [Compound 68b] and write its reported IC50.
2.18

Note down IC50 recorded for C[C@@H](Nc1cncc(-c2ccc3[nH]c(=O)[nH]c3c2)c1)c1ccccc1 [Compound 68a]
0.21

###

- ASSAY SYSTEM: DYRK1A (Homo sapiens, UniProt Q13627)
- Construct: purchased DiscoverX
- TEST NAME: KINOMEscan DYRK1A binding assay (DiscoverX), Kd determination
- REPORTED CONDITIONS: eleven serial three fold dilutions, highest concentration 60 μM, several values in a cell = repeat determinations
MEASURED QUANTITY: log10 of Kd (log10 of the value in nM)
Values are log10 of Kd in nM.

Report log10 of Kd from DYRK1A (Homo sapiens, UniProt Q13627) testing of O=c1[nH]c2ccc(-c3cncc(NCc4ccc(-c5ccccc5)cc4)c3)cc2[nH]1 [Compound 30h]
3.08

GET log10 of Kd where system = DYRK1A (Homo sapiens, UniProt Q13627) and item = CC(Nc1cncc(-c2ccc3[nH]c(=O)n(C)c3c2)c1)c1ccccc1 (centres unmarked) [Compound 30n]
-0.09

Give the observed log10 of Kd of Cc1ncc(-c2ccc3[nH]c(=O)[nH]c3c2)cc1NCc1ccc(F)cc1 [Compound 13d] for DYRK1A (Homo sapiens, UniProt Q13627).
2.38

Fill: log10 of Kd (DYRK1A (Homo sapiens, UniProt Q13627)) for this compound O=c1[nH]c2ccc(-c3ccc(NCc4ccc(F)cc4)cn3)cc2[nH]1 [Compound 11c]
3.78

Would you please give the reported log10 of Kd of C[C@H](Nc1cncc(-c2ccc3[nH]c(=O)[nH]c3c2)c1)c1ccccc1 [Compound 68b] with DYRK1A (Homo sapiens, UniProt Q13627)?
0.88

GET log10 of Kd where system = DYRK1A (Homo sapiens, UniProt Q13627) and item = N#Cc1ccc(CNc2cncc(-c3ccc4[nH]c(=O)[nH]c4c3)c2)cc1 [Compound 30g]
1.49

Using DYRK1A (Homo sapiens, UniProt Q13627) as the test system, report measured log10 of Kd of Cn1c(=O)[nH]c2cc(-c3cncc(NCc4ccccc4)c3)ccc21 [Compound 12c] .
3.30

# return log10 of Kd for Cn1c(=O)[nH]c2ccc(-c3cncc(NCc4ccccc4F)c3)cc21 [Compound 30q] , test system: DYRK1A (Homo sapiens, UniProt Q13627)
-0.07
